- Test system: SK-MEL-28 melanoma
- ASSAY NOTES: NCI tumour cell line growth inhibition, 48 h
ASSAY ENDPOINT: TGI

{"COMPOUND": "CC(C)CC(N)C(=O)Nc1ccc2ccccc2c1 (centres undefined)", "ASSAY ENDPOINT": "TGI", "VALUE": "> 100 µM"}
{"COMPOUND": "Cc1cc(=O)n(-c2cc3cccccc-3n2)[nH]1", "ASSAY ENDPOINT": "TGI", "VALUE": "> 100 µM"}
{"COMPOUND": "Cc1c(CCCl)c(N=P(c2ccccc2)(c2ccccc2)c2ccccc2)n2c(nc3ccccc32)c1C#N", "ASSAY ENDPOINT": "TGI", "VALUE": "> 10 µM"}
{"COMPOUND": "CC(=O)[CH-]C(=O)c1ccccc1.CC(=O)[CH-]C(=O)c1ccccc1.O=S(=O)([O-])c1cc([O-])c2c([O-])cc(S(=O)(=O)[O-])cc2c1.[Na+].[Zr+4]", "ASSAY ENDPOINT": "TGI", "VALUE": "> 100 µM"}
